Every entry's value here was drawn from patent US20110135636A1.

# experimentalSystem: T1, recombinant human EGFR extracellular domain with 6xHis (human, UniProt P00533 25-645)
# T1 construct: In-house produced; also called 6xHis EGFR ECD; soluble human EGFR ECD; not shown: 6xHis tag
# method: SPR competition, competitor 1277
Below: a set of entries, each annotated with reported % inhibition.
# number only, unit % dropped from output

Please review the entries below; each comes with its answer.
binder	obsValue
antibody 1030 (antibody, human IgG1, kappa, V domains shown, Chimeric IgG1 kappa) VH: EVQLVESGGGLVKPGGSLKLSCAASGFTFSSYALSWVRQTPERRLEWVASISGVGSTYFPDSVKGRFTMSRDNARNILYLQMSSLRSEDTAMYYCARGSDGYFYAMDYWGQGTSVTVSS VL: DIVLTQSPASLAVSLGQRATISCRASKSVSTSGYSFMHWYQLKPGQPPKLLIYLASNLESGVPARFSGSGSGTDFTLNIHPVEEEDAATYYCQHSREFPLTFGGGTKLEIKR	103
antibody 992 (antibody, human IgG1, kappa, V domains shown, Chimeric mouse/human IgG1 kappa; the VL entry includes the human kappa constant region) VH: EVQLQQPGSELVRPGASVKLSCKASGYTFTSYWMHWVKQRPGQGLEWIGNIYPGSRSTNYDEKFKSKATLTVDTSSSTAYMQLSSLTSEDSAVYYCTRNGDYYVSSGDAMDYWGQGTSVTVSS VL: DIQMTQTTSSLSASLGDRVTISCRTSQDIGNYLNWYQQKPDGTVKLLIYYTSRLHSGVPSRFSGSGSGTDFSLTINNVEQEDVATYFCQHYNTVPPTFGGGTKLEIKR	110
antibody 1344 (antibody, human IgG1, kappa, V domains shown, Chimeric IgG1 kappa) VH: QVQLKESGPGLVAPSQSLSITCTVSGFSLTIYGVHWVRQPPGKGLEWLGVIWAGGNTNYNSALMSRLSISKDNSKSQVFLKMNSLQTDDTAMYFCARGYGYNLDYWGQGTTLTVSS VL: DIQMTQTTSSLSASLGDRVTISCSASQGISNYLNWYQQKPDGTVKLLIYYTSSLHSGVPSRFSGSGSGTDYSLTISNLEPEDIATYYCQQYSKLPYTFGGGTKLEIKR	10
antibody 1347 (antibody, human IgG1, kappa, V domains shown, Chimeric IgG1 kappa) VH: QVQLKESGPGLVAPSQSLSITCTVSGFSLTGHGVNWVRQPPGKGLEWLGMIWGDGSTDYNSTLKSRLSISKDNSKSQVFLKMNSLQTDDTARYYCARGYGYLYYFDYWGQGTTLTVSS VL: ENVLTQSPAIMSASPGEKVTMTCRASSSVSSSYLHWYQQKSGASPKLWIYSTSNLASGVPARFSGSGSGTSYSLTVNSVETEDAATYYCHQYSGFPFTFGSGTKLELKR	6

Field: next binder
Q: Give recorded % inhibition. antibody 1308 (antibody, human IgG1, kappa, V domains shown, Chimeric IgG1 kappa) VH: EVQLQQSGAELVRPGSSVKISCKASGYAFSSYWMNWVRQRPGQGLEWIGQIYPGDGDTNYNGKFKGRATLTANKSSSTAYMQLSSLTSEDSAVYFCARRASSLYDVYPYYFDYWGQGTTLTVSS VL: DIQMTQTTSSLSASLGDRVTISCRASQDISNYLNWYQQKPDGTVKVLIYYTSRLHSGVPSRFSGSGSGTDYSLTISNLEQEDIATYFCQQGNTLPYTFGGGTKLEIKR
Result: 7
